Hello, the source for this data is paper PMC10692721, in case you need it.

System: TMR-cC0-C2
PROTOCOL: Selleck library HTS, 532 nm excitation (FLT of TMR-cC0-C2 in presence of FMAL-actin)
Assay type: binding, human
ASSAY CONDITIONS: initial screen, 30 μM compound
Experimental: Fluorescence lifetime (FLT) measurements were acquired using a high-throughput FLT plate reader (Fluorescence Innovations, Inc) ([14], [27]), provided by Photonic Pharma LLC. […] The observed waveforms were analyzed as described previously ([15], [28]). In total, 50 nl of each solution was dispensed in DMSO using an automated Echo 550 acoustic liquid dispenser (Labcyte). […] Plates were incubated at room temperature for 60 min before recording the data with the fluorescence lifetime plate reader. […]
MEASURED ENDPOINT: 532-nm Δτ, Repeat 1
Please answer using the number first and the unit second.

Sample answers from the record:
[[record]]
compound = "CCCCC(=O)N(Cc1ccc(-c2ccccc2-c2nnn[nH]2)cc1)[C@H](C(=O)O)C(C)C"
assay_value = "0.000 ns"

[[record]]
compound = "O=c1cc(-c2ccc(O)c(O)c2)oc2cc(O)cc(O)c12"
assay_value = "-0.277 ns"

[[record]]
compound = "COc1ccc(CN(CCN(C)C)c2ncccn2)cc1"
assay_value = "-0.034 ns"

[[record]]
compound = "CC1(C)[C@@H](O[C@H]2O[C@H](C(=O)O)[C@@H](O)[C@H](O)[C@H]2O[C@@H]2O[C@H](C(=O)O)[C@@H](O)[C@H](O)[C@H]2O)CC[C@]2(C)[C@H]3C(=O)C=C4[C@@H]5C[C@@](C)(C(=O)O)CC[C@]5(C)CC[C@@]4(C)[C@]3(C)CC[C@@H]12.N.N [Diammonium glycyrrhizinate]"
assay_value = "0.022 ns"

[[record]]
compound = "CCOC(=O)[C@@H](N)Cc1ccc(-c2cc(O[C@H](c3ccc(Cl)cc3-n3ccc(C)n3)C(F)(F)F)nc(N)n2)cc1 [Telotristat etiprate (LX 1606 Hippurate), Telotristat etiprate]"
assay_value = "0.064 ns"

[[record]]
compound = "Cc1ccc(Nc2c(F)cccc2Cl)c(CC(=O)O)c1"
assay_value = "-0.054 ns"


Please give 532-nm Δτ, Repeat 1 for each item listed below.
1. O=C(O)c1cc(/N=N/c2ccc(O)c(C(=O)O)c2)ccc1O [Olsalazine Sodium]
2. COc1nc2ccc(Br)cc2cc1[C@@H](c1ccccc1)[C@@](O)(CCN(C)C)c1cccc2ccccc12.O=C(O)/C=C/C(=O)O [Bedaquiline fumarate]

Reply |
1. -0.057 ns
2. -0.009 ns
